Sourced from patent US20210139467A1

measured.target: IDO1 (Homo sapiens)
assay.text: IDO1 PBMC RapidFire MS Assay
Type: cell-based
Set-up: stimulated with human interferon-γ (IFN-γ); host or cells: human PBMC stimulated with IFN-gamma and LPS
condition.parameters: human PBMC stimulated with IFN-γ and LPS; kynurenine detected by mass spectrometry; 2 days; read-out: IDO1 PBMC pIC50 (converted)
Exercise: for every item that follows, state its recorded IC50.
Numbers only, in nM.

Example entries and their recorded answers appear below.
>>> assay_value("CC(C)CN(c1ccc(C2(C(=O)NS(C)(=O)=O)CC2)cc1Nc1ccc(Cl)cn1)C1CCOCC1 [Example 4]")
0.794
>>> assay_value("CC(C)CN(c1ncc(C2(C(=O)O)CC2)cc1Nc1ccc(Cl)cn1)C1CCOCC1 [Example 9]")
7.94

// for each molecule below, give its IC50
1. CC(C)CN(c1ccc(C(C)(C)C(=O)NS(C)(=O)=O)nc1Nc1ccc(Cl)cn1)C1CCOCC1 [Example 18]
2. CC(C)CN(c1cnc(C2(C(=O)O)CC2)cc1Nc1ccc(Cl)cn1)C1CCOCC1 [Example 25]
3. CC(C)CN(c1ccc(C(C)(C)C(=O)O)cc1Nc1ccc(Cl)cn1)C1CCOCC1 [Example 1]

1. 3.16
2. 50.1
3. 3.16

* * *

measured.target: UniProt P14902
assay.text: IDO1 PBMC RapidFire MS Assay
Assay type: cell-based
Set-up: stimulated with human interferon-γ (IFN-γ); host or cells: human PBMC stimulated with IFN-gamma and LPS
condition.parameters: human PBMC stimulated with IFN-γ and LPS; kynurenine detected by mass spectrometry; 2 days; read-out: IDO1 PBMC pIC50 (converted)
Experimental: IDO1 PBMC RapidFire MS Assay Compounds of the present invention were tested via high-throughput cellular assays utilizing detection of kynurenine via mass spectrometry and cytotoxicity as end-points. […] Cellular toxicity due to the effect of compound treatment was measured using CellTiter-Glo® reagent (CTG) (Promega Corporation, Madison, Wis.), which is based on luminescent detection of ATP, an indicator of metabolically active cells. […]
Field: class. Source value: IC50. Ranges: class A: < 0.006 µM; class B: ≥ 0.006 µM and < 0.02 µM; class C: ≥ 0.02 µM

# classify by IC50 band: CC(C)CN(c1ccc(C2(C(=O)NS(C)(=O)=O)CC2)cc1Nc1nnc(C2CC2)s1)C1CCOCC1
class A

Please do the same for CC(C)CN(c1ccc(C2(C(=O)O)CC2)cc1Nc1nnc(C2CC2)s1)C1CCOCC1 as well.
class B

And CC(C)CN(CC(C)C)c1ccc(C(C)(C)C(=O)O)cc1Nc1nc(C(F)(F)F)ns1 ?
class B

// same read-out, input: CC(C)CN(c1ccc(C(C)(C)C(=O)NS(C)(=O)=O)cc1Nc1ccc(Cl)cn1)C1CCOCC1
class A

* * *

measured.target: IDO1 (Homo sapiens, UniProt P14902)
Sequence (P14902 whole entry): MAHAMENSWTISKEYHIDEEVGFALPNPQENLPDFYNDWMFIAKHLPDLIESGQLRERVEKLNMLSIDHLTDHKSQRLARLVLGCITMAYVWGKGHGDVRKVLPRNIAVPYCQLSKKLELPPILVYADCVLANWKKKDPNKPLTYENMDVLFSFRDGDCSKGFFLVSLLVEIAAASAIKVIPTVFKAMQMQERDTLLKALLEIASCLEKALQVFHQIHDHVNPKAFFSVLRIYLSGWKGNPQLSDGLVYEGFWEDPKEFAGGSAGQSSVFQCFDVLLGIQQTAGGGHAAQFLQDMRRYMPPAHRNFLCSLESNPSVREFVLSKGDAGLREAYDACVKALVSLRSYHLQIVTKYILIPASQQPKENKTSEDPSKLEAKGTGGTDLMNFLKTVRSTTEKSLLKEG
assay.text: IDO1 PBMC RapidFire MS Assay
Format: cell-based
Set-up: stimulated with human interferon-γ (IFN-γ); host or cells: human PBMC stimulated with IFN-gamma and LPS
condition.parameters: human PBMC stimulated with IFN-γ and LPS; kynurenine detected by mass spectrometry; 2 days; read-out: IDO1 PBMC pIC50 (converted)
quantity.measured: IC50 (nM)
Numbers only, in nM.

For each of the compounds below, note its IC50.
1. CC(C)CN(c1ncc(C(C)(C)C(=O)NS(=O)(=O)C(F)(F)F)cc1Nc1ccc(Cl)cn1)C1CCOCC1
2. CC(C)CN(CC(C)C)c1ccc(C(C)(C)C(=O)O)cc1Nc1ccc(Cl)cn1
3. CC(C)CN(c1ncc(C2(C(=O)NS(C)(=O)=O)CC2)cc1Nc1ccc(Cl)cn1)C1CCOCC1

20
25.1
5.01

Can you give me IC50 for all of these, one by one?
1. CC(C)CN(c1ccc(C(C)(C)C(=O)NS(=O)(=O)C(F)(F)F)cc1Nc1ccc(Cl)cn1)C1CCOCC1
2. COCc1ccc(Nc2cc(C3(C(=O)NS(C)(=O)=O)CC3)ccc2N(CC(C)C)C2CCOCC2)cn1
3. CC(C)CN(c1ccc(C(C)(C)C(=O)O)nc1Nc1ccc(Cl)cn1)C1CCOCC1
4. CC(C)CN(c1ccc(C2(C(=O)O)CC2)cc1Nc1ccc(Cl)cn1)C1CCOCC1
5. CC(C)CN(c1ncc(C(C)(C)C(=O)O)cc1Nc1ccc(Cl)cn1)C1CCOCC1
6. CC(C)CN(c1ncc(C2(C(=O)NS(=O)(=O)C(F)(F)F)CC2)cc1Nc1ccc(Cl)cn1)C1CCOCC1
7. CC(C)CN(c1ccc(C2(C(=O)NS(C)(=O)=O)CC2)cc1Nc1cnc(C#N)nc1)C1CCOCC1

1: 20; 2: 39.8; 3: 6.31; 4: 6.31; 5: 6.31; 6: 31.6; 7: 50.1

Please state IC50 for every compound in the list that follows.
1. COc1ncc(Nc2cc(C3(C(=O)NS(C)(=O)=O)CC3)ccc2N(CC(C)C)C2CCOCC2)cn1
2. CC(C)CN(c1ncc(C(C)(C)C(=O)NS(C)(=O)=O)cc1Nc1ccc(Cl)cn1)C1CCOCC1

[12.6, 5.01]
